A collection of molecules and their measured T/C
# System: L1210 leukemia ip in BDF1 mice, survival T/C
# Test Summary: NCI In Vivo Anticancer Drug Screen. Data for tumor model L1210 Leukemia (intraperitoneal) in B6D2F1 (BDF1) mice
# Measurement Context: endpoint: mean survival time; dose: 200.0 mg/kg/injection; schedule: Q04DX003 (ip); vehicle: saline; higher = longer survival
# Description: The antitumor activity of compounds was measured in mice bearing transplantable tumors. Survival or tumor size were measured and the results are expressed as the measurement made in the treated group (T) divided by the measurement made in the vehicle treated control group (C). The tumor model used in this assay is L1210 Leukemia (intraperitoneal) in B6D2F1 (BDF1) mice
Toxic doses and inconclusive results are not listed.

// below: answered molecules
Molecule: O=C(CBr)OCCCS(=O)(=O)O
Result: 104 % of control
--
Molecule: COc1ccc(C(=O)CSc2cc[o+]cc2)cc1
Result: 92 % of control
--
Molecule: Nc1nc(Nc2ccccc2)nc(C(=O)O)n1
Result: 101 % of control
--
Molecule: Cc1cccc(=O)n1CCC#N
Result: 93 % of control
--
Molecule: CC(O)(C(=O)O)c1ccccc1 (stereo not drawn)
Result: 105 % of control
--
Molecule: O=C(NNc1c(Cl)cc(Cl)cc1Cl)C(O)C(O)C(O)C(O)CO (stereo not drawn)
Result: 87 % of control

Okay, now this molecule:
# molecule Oc1c(Cl)cc(C(c2cc(Cl)c(O)c(Cl)c2)C(c2cc(Cl)c(O)c(Cl)c2)c2cc(Cl)c(O)c(Cl)c2)cc1Cl ; its T/C = 96 % of control
